Origin of values: patent US12678413B2

target or system: butyrylcholinesterase (BChE) (Equus caballus, UniProt P81908)
Construct: horse serum butyrylcholinesterase (BChE, EC3.1.1.8)
Sequence (P81908 whole entry): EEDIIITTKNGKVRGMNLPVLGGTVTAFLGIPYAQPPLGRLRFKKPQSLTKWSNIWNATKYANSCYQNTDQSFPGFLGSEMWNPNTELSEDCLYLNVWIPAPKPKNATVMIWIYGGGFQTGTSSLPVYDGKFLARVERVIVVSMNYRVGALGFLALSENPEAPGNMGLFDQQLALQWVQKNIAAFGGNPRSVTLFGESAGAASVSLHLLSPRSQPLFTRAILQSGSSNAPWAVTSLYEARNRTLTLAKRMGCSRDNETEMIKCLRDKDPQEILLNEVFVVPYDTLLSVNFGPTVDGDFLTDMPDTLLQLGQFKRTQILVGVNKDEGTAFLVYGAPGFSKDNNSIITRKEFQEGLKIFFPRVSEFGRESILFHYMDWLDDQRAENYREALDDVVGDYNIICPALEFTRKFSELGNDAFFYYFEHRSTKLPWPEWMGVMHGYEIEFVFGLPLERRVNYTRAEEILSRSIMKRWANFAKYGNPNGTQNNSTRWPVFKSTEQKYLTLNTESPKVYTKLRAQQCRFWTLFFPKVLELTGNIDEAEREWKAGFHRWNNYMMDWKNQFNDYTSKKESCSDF
experimental protocol: In vitro cholinesterase activity assay (Ellman), BChE
condition set: concentrations up to 125 μM; Mean ± SEM; read-out: IC50 Butyrylcholine esterase Mean ± SEM
Give measured pIC50 for each item. Keep answers brief.
The quantity pIC50 is defined as the negative base-10 logarithm of the molar concentration.

Query: Return reported pIC50; argument: Cc1c(CCO[C@@H]2OC(CO)[C@@H](O)[C@H](O)C2O)c(CO)cc2c1C(=O)[C@@H](C)C2 (stereo partly drawn) [Compound 19, (2S)-pteroside P]
Reply: 4.48

Query: Quick one: pIC50 of Cc1cc2c(c(C)c1CCO[C@@H]1OC(CO)[C@@H](O)[C@H](O)C1O)C(=O)[C@H](C)C2 (stereo partly drawn) [Compound 14, (2R)-pteroside B] ?
Reply: 4.75

* * *

target or system: acetylcholinesterase (AChE) (Electrophorus electricus, UniProt O42275)
Sequence (O42275 24-633): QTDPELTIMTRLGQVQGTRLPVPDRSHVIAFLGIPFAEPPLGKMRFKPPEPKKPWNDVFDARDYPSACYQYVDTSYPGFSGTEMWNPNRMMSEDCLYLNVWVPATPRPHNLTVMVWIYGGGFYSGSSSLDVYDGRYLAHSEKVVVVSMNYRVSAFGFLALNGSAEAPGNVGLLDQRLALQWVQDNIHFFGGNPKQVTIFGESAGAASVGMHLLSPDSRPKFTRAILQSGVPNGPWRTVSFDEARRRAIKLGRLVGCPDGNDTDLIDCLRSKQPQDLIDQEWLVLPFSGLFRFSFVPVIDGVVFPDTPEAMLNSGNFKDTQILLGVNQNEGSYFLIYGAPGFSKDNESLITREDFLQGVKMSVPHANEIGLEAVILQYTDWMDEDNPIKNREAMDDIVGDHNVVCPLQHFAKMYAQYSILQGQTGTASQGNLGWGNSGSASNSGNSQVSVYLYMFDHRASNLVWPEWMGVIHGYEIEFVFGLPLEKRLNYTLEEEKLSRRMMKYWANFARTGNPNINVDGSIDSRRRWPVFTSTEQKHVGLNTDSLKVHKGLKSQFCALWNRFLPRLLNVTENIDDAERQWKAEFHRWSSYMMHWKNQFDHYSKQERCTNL
Classify: 1 when IC50 is strictly less than 20 µM; 0 when IC50 is not.

Query: Just wondering, is IC50 of Cc1cc2c(c(C)c1CCO[C@@H]1OC(CO)[C@@H](O)[C@H](O)C1O)C(=O)C(C)(C)C2 (stereo partly drawn) [Compound 20, pteroside Z] below 20 µM?
Reply: 0

Query: Quick check: does Cc1cc2c(c(C)c1CCO)C(=O)[C@H](C)[C@H]2O have IC50 under 20 µM?
Reply: 0

Query: Confirm or reject: IC50 of Cc1cc2c(c(C)c1CCO)C(=O)[C@@H](C)[C@H]2O lies strictly below 20 µM
Reply: 1

Query: Please let me know if Cc1cc2c(c(C)c1CCO)C(=O)C(C)(C)[C@@H]2O shows IC50 below 20 µM.
Reply: 0

Query: For this compound, is IC50 lower than 20 µM? Cc1c(CCO)c(CO)cc2c1C(=O)[C@@H](C)C2
Reply: 1

Query: Say whether its IC50 is strictly beneath 20 µM. Entry: COc1ccc2cc3[n+](cc2c1OC)CCc1cc2c(cc1-3)OCO2 [Berberine, reference compound]
Reply: 1

Query: Determine if Cc1cc2c(c(C)c1CCO)C(=O)[C@](C)(COC1O[C@H](CO)[C@@H](O)[C@H](O)[C@H]1O)C2 (stereo partly drawn) [Compound 13, (2S)-pteroside A2] shows IC50 strictly lower than 20 µM.
Reply: 0

Query: Below 20 µM on IC50? Entry Cc1cc2c(c(C)c1CCO)C(=O)[C@H](C)C2
Reply: 1

Query: Is IC50 strictly under 20 µM for the entry Cc1cc2c(c(C)c1CCO[C@@H]1OC(CO)[C@@H](O)C(O)C1O)C(=O)[C@](C)(O)C2 (single isomer, unassigned; (-)) [Compound 18, (−)-pteroside N] ?
Reply: 1

Query: A record lists Cc1c(CCO[C@@H]2OC(CO)[C@@H](O)[C@H](O)C2O)c(CO)cc2c1C(=O)[C@@H](C)C2 (stereo partly drawn) [Compound 19, (2S)-pteroside P] . Is its IC50 below 20 µM?
Reply: 0

Query: Please indicate whether the reported IC50 of Cc1cc2c(c(C)c1CCO)C(=O)C(C)(C)C2 is strictly below 20 µM.
Reply: 0

Query: API: query returns whether the compound falls strictly under 20 µM in IC50. Query: Cc1cc2c(c(C)c1CCO[C@@H]1OC(CO)[C@@H](O)[C@H](O)C1O)C(=O)[C@](C)(CO)C2 (stereo partly drawn) [Compound 12, (2S)-pteroside A]
Reply: 0
